Study Target: N-type calcium channel subunits (α1B, α2δ, and β3a) (Homo sapiens, UniProt Q00975)
Sequence (Q00975 whole entry): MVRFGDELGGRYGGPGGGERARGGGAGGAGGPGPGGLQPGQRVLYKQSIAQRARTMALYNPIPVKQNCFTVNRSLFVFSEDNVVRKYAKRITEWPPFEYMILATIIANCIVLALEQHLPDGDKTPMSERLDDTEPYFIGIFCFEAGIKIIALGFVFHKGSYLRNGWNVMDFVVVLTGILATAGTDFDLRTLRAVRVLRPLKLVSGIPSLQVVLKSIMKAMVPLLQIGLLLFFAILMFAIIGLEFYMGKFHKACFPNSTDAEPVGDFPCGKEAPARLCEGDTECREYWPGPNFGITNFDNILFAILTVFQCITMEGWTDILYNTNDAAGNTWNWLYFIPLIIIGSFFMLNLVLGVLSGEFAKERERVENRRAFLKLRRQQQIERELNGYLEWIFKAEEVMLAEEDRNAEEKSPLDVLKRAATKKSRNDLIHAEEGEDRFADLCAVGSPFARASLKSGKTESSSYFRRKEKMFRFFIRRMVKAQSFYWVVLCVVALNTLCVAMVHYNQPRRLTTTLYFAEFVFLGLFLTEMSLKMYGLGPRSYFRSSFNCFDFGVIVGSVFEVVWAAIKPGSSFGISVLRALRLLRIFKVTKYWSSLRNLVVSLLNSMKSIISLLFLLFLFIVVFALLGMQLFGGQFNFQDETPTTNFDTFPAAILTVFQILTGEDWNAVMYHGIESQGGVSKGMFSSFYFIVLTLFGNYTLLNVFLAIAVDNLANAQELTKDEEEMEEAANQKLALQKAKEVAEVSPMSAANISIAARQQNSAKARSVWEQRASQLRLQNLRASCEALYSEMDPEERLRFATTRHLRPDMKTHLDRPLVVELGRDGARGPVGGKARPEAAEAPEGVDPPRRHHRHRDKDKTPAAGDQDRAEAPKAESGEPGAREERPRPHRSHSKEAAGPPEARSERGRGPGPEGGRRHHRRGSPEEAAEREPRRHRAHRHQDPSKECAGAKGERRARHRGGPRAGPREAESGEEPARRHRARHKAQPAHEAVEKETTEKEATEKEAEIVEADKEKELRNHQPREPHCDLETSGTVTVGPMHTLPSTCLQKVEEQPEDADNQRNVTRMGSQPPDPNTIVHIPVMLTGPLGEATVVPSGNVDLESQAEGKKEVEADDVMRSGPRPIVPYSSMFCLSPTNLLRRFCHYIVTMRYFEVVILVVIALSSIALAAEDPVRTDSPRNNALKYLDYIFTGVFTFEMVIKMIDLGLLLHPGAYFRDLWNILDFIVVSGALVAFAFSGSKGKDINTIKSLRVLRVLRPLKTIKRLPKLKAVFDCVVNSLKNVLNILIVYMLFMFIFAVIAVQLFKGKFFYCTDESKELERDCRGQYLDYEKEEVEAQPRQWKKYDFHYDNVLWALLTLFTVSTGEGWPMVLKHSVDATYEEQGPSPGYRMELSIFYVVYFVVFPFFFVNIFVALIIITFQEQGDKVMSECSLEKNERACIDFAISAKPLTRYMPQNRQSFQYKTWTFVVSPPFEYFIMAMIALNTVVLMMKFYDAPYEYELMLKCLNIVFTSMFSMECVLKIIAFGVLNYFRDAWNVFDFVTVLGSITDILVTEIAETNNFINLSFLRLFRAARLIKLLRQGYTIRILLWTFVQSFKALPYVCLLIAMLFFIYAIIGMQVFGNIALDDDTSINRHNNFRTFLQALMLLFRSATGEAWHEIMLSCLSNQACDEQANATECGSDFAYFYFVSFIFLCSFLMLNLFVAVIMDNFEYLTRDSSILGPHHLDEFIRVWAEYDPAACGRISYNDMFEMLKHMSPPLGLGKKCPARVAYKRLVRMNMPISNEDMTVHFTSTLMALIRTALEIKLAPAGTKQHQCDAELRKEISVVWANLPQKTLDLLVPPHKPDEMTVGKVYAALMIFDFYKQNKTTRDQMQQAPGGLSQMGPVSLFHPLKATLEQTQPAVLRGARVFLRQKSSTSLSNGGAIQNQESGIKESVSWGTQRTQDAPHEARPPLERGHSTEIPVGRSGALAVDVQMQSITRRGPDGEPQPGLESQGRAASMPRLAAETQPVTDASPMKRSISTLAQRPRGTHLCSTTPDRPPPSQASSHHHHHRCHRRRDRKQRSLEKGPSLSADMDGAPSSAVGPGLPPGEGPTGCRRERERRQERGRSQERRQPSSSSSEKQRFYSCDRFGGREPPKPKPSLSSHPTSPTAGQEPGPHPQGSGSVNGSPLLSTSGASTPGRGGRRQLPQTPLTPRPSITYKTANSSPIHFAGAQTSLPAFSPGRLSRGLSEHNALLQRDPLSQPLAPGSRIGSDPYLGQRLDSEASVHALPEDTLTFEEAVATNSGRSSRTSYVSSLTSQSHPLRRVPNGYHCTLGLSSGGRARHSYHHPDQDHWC
Sequence (P54289 25-1103 partner): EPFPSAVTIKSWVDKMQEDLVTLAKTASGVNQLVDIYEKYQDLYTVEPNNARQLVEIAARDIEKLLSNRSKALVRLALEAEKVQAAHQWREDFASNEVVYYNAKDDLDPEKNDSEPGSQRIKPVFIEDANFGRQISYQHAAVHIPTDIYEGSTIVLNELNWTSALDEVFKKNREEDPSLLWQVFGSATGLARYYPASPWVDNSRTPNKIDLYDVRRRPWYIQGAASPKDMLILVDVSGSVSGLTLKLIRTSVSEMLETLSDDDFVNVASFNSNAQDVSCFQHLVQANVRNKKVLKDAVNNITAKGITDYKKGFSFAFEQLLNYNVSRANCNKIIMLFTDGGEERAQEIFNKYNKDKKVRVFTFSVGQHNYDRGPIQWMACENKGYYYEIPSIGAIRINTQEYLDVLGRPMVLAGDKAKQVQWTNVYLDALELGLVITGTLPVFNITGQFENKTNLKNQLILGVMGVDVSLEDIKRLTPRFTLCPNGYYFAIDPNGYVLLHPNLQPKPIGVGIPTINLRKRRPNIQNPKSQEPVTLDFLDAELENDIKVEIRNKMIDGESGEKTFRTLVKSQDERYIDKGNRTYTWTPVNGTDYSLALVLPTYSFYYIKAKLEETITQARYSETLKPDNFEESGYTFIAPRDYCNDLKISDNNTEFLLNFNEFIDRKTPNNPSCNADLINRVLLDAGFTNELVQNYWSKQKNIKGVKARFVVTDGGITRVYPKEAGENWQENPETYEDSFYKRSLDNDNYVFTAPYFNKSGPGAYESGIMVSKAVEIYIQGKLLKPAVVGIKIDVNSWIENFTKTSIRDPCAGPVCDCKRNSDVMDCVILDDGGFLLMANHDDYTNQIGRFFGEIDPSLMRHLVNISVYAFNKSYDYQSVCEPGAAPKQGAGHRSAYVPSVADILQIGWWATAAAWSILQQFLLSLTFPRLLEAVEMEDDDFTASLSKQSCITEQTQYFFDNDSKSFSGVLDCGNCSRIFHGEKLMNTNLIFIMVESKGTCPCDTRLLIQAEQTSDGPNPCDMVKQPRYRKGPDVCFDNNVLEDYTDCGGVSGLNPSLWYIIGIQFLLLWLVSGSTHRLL
Sequence (P54284 whole entry partner): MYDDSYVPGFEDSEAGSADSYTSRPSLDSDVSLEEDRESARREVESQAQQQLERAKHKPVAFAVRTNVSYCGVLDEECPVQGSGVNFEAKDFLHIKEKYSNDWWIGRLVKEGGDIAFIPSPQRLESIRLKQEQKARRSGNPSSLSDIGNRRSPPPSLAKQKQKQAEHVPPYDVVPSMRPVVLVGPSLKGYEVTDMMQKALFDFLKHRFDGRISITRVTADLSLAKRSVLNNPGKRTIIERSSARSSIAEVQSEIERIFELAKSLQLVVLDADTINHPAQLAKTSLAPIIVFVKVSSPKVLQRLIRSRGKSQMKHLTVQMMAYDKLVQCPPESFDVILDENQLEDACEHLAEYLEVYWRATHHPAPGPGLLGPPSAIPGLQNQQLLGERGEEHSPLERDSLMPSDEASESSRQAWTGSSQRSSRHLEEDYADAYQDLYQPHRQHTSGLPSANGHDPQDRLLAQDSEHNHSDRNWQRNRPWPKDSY
Test: Block of Cav2.2 channel, whole cell voltage clamp, manual and PatchXpress
Assay type: cell-based
Setup Conditions: Table 5; table follows Assay Example 3 (whole cell voltage clamp / PatchXpress); assay not given
Lab note - cut at 500 nM for IC50: rule met if strictly below, rule not met if not.

Is 500 nM strictly greater than the molecule's reported IC50? molecule: O=C(NC1CCC(S(=O)(=O)c2cccc(C(F)(F)F)c2)CC1)c1ccn(CC(F)(F)F)n1 (centres unmarked) [Compound 14]
rule not met

Strictly below 500 nM in IC50? CC(C)(C)CC(=O)N[C@H]1CC[C@@](F)(S(=O)(=O)c2cccc(C(F)(F)F)c2)CC1 [Compound 278]
rule met

Would you kindly verify if IC50 of O=C(CN[C@H]1C[C@@H](S(=O)(=O)c2cccc(C(F)(F)F)c2)C1)NC1CCC(F)(F)CC1 [Compound 431] is strictly less than 500 nM?
rule not met

IC50 strictly < 500 nM for this molecule? O=C(NC[C@H]1CC[C@@H](S(=O)(=O)c2cccc(C(F)(F)F)c2)CC1)c1ccc(F)c(C(F)(F)F)c1 [Compound 31]
rule met

Report whether reported IC50 is lower than 500 nM (strictly) for O=C(N[C@H]1CC[C@@H](S(=O)(=O)c2cccc(C(F)(F)F)c2)CC1)c1ccc(Cl)c(C(F)(F)F)c1 [Compound 132]
rule not met

Next:
Identify whether the molecule COc1cc(C(=O)NC2(C)CCC(S(=O)(=O)c3cccc(C(F)(F)F)c3)CC2)cc(Cl)n1 (centres unmarked) [Compound 313] records IC50 below 500 nM.
rule not met

Below 500 nM on IC50? Entry O=C(N[C@H]1CC[C@H](S(=O)(=O)c2cccc(C(F)(F)F)c2)CC1)c1cncc(C(F)(F)F)c1 [Compound 190]
rule not met

Determine whether this molecule shows IC50 lower than 500 nM (ties excluded): O=C(N[C@H]1C[C@H](CS(=O)(=O)c2cccc(C(F)(F)F)c2)C1)c1ccc(C(F)(F)F)cn1 [Compound 347]
rule not met

Problem: For the molecule CC1(CNC(=O)c2ccc(C(F)(F)F)cc2S(C)(=O)=O)CCC(F)(S(=O)(=O)c2cccc(C(F)(F)F)c2)CC1 (centres unmarked) [Compound 155] , is IC50 under 500 nM?
rule not met

Dear colleague, could you confirm whether IC50 of O=C(N[C@H]1CC[C@H](S(=O)(=O)c2cccc(C(F)(F)F)c2)CC1)c1ccnc(C(F)(F)F)c1 [Compound 189] falls below 500 nM? Thanks.
rule not met

###

Study Target: T-type calcium channel (Homo sapiens, UniProt O43497)
Test: T-type channel blocking, FLIPR data (Table 6)
Setup Conditions: CAv3.1
Observation Type: pIC50
Give bare numbers, as −log10 of the molar value.

Consider the reported pIC50 for these compounds:
For the compound shown here, CC(C)([C@H]1C[C@H](C(=O)Nc2ccc(C(F)(F)F)nc2)C1)S(=O)(=O)c1cccc(C(F)(F)F)c1 , give the reported pIC50.
5.55

Which pIC50 reading was recorded for the compound CC(C)(C[C@H]1C[C@@H](NC(=O)c2ccc(OCC(F)(F)F)nc2)C1)S(=O)(=O)c1cccc(C(F)(F)F)c1 ?
5.66

Reported pIC50, compound CC(C)([C@H]1C[C@@H](C(=O)Nc2ccc(C(F)(F)F)cc2)C1)S(=O)(=O)c1cccc(C(F)(F)F)c1 : ____
5.80

Would you mind listing pIC50 for each of the following compounds?
1. CC(C)([C@H]1C[C@@H](NS(=O)(=O)c2ccc(C(F)(F)F)cc2)C1)S(=O)(=O)c1cc(F)cc(C(F)(F)F)c1
2. CC(C)([C@H]1C[C@H](NC(=O)c2ccc(F)c(Cl)c2)C1)S(=O)(=O)c1cccc(OC(F)(F)F)c1

1: 5.12; 2: 5.81

###

Could you please report measured pIC50 for the items listed next?
Study Target: Human Cav 2.2 channels (Homo sapiens)
Test: Fluorescent assay for CaV2.2 channels using potassium depolarization (VIPR/FLIPR)
Type: cell-based
Setup Conditions: FLIPR data; closed state; read-out: CAv2.2 IC50 Closed
Give bare numbers, as −log10 of the molar value.

Here are 6 molecules together with their reported answers.
Value wanted: pIC50 (Human Cav 2.2 channels (Homo sapiens)) of entry CC(C)(C[C@H]1C[C@@H](NC(=O)[C@H]2CCCC[C@@H]2N)C1)S(=O)(=O)c1cccc(C(F)(F)F)c1 [Compound 745]
5.37

Hi! What's the reported pIC50 for CC(C)([C@H]1C[C@@H](NC(=O)CC2(N)CCCCC2)C1)S(=O)(=O)c1cc(F)cc(C(F)(F)F)c1 [Compound 653] on Human Cav 2.2 channels (Homo sapiens)?
5.00

Give pIC50 (Human Cav 2.2 channels (Homo sapiens)) of the following molecule: CC(C)([C@H]1C[C@@H](NC(=O)c2ncc(C(F)(F)F)cn2)C1)S(=O)(=O)c1cccc(C(F)(F)F)c1 [Compound 583]
5.00

# value lookup — system Human Cav 2.2 channels (Homo sapiens), readout pIC50, item CC(C)([C@H]1C[C@H](C(=O)Nc2ccc(Cl)cn2)C1)S(=O)(=O)c1cccc(C(F)(F)F)c1 [Compound 761]
5.80

Tell me reported pIC50 for CC(C)([C@H]1C[C@@H](NC(=O)c2ccc(C(F)(F)F)cc2S(C)(=O)=O)C1)S(=O)(=O)c1cc(F)cc(C(F)(F)F)c1 [Compound 585] , tested with Human Cav 2.2 channels (Homo sapiens).
5.00

What measured pIC50 is associated with CC(C)([C@H]1C[C@H](NS(=O)(=O)c2ccc(C(F)(F)F)nc2)C1)S(=O)(=O)c1cccc(C(F)(F)F)c1 [Compound 668] on Human Cav 2.2 channels (Homo sapiens)?
5.13

Switching to the query record.
I'm curious: which pIC50 was measured for O=C(NC[C@H]1C[C@H](S(=O)(=O)c2cccc(C(F)(F)F)c2)C1)c1ccc(Cl)cn1 [Compound 573] tested on Human Cav 2.2 channels (Homo sapiens)?
5.49

###

So I've got a bunch of compounds here, and I need their CAv3.2 IC50 Ratio closed/inact. values.
Study Target: T-type calcium channel (Homo sapiens, UniProt O95180)
Test: T-type channel blocking, FLIPR data (Table 6)
Type: cell-based
Setup Conditions: CAv3.2, ratio closed/inact.
One number for each entry.

Which CAv3.2 IC50 Ratio closed/inact. value is on record for Cn1nc(C(F)(F)F)cc1NC(=O)[C@H]1C[C@H](C(C)(C)S(=O)(=O)c2cccc(C(F)(F)F)c2)C1 ?
1.4

// for each compound below, give its CAv3.2 IC50 Ratio closed/inact.
1. Cn1nc(C(F)(F)F)cc1C(=O)N1CC(CS(=O)(=O)c2cc(F)cc(C(F)(F)F)c2)C1
2. O=C(NC[C@H]1C[C@H](S(=O)(=O)c2cccc(Cl)c2)C1)c1cnc(C(F)(F)F)nc1
3. CC(C)([C@H]1C[C@H](C(=O)NCc2ccc(C(F)(F)F)nc2)C1)S(=O)(=O)c1cccc(C(F)(F)F)c1
4. CC(C)([C@H]1C[C@@H](C(=O)Nc2ccc(C(F)(F)F)nc2)C1)S(=O)(=O)c1cccc(C(F)(F)F)c1
5. O=C(NC[C@H]1C[C@H](S(=O)(=O)c2cccc(Cl)c2)C1)c1ccc(C(F)(F)F)cn1

1.2
1
1
1.7
0.7

Consider the following items and state reported CAv3.2 IC50 Ratio closed/inact. for each.
1. CC(C)([C@H]1C[C@@H](C(=O)Nc2cc(C(F)(F)F)n[nH]2)C1)S(=O)(=O)c1cccc(C(F)(F)F)c1
2. CC(C)([C@H]1C[C@H](C(=O)Nc2ccc(C(F)(F)F)cc2Cl)C1)S(=O)(=O)c1cccc(C(F)(F)F)c1
3. CC(C)([C@H]1C[C@H](C(=O)NCc2ccc(Oc3ccccc3)cc2)C1)S(=O)(=O)c1cccc(C(F)(F)F)c1
4. CC(C)([C@H]1C[C@@H](CNc2cc(C(F)(F)F)n[nH]2)C1)S(=O)(=O)c1cccc(C(F)(F)F)c1
5. O=C(NC[C@H]1C[C@H](S(=O)(=O)c2cccc(Cl)c2)C1)c1ccc(Cl)cn1
6. O=C(c1ccc(C(F)(F)F)cn1)N1CC(CS(=O)(=O)c2cc(F)cc(C(F)(F)F)c2)C1
7. O=C(NC[C@H]1C[C@H](S(=O)(=O)c2cccc(Cl)c2)C1)c1ccc(C(F)(F)F)cc1

1. 2.6
2. 7.3
3. 6.7
4. 4
5. 1
6. 1
7. 1.8

Any idea what its CAv3.2 IC50 Ratio closed/inact. is? The compound is CC(C)([C@H]1C[C@H](C(=O)Nc2ccc(C(F)(F)F)cn2)C1)S(=O)(=O)c1cccc(C(F)(F)F)c1
1.8

###

Study Target: Human Cav 2.2 channels (Homo sapiens, UniProt Q00975)
Test: Fluorescent assay for CaV2.2 channels using potassium depolarization (VIPR/FLIPR)
Type: cell-based
Setup Conditions: FLIPR data; ratio closed/inactivated IC50
Would you kindly list CAv2.2 IC50 Ratio closed/inact. for each of these compounds?
Numbers only.

Query the reported CAv2.2 IC50 Ratio closed/inact. for Human Cav 2.2 channels (Homo sapiens, UniProt Q00975); item: CC(C)(C1CC(CNC(=O)c2ccc(OCC(F)(F)F)nc2)C1)S(=O)(=O)c1cccc(C(F)(F)F)c1 (stereo not shown) [Compound 619]
6.4

Provide CAv2.2 IC50 Ratio closed/inact. for all items below, preserving their order.
1. CC(C)([C@H]1C[C@H](NC(=O)c2ccc(Cl)c(F)c2)C1)S(=O)(=O)c1cc(F)cc(C(F)(F)F)c1 [Compound 596]
2. O=C(NC[C@H]1C[C@H](S(=O)(=O)c2cc(F)cc(C(F)(F)F)c2)C1)c1ccnc(C(F)(F)F)n1 [Compound 710]
3. CNC1(CC(=O)N[C@H]2C[C@H](C(C)(C)S(=O)(=O)c3cccc(OC(F)(F)F)c3)C2)CCCCC1 [Compound 662]

[6.7, 3.4, 4.5]
